# measuredTarget: human CYP11B2 (Homo sapiens (Human), UniProt P19099)
# Sequence (P19099 25-503): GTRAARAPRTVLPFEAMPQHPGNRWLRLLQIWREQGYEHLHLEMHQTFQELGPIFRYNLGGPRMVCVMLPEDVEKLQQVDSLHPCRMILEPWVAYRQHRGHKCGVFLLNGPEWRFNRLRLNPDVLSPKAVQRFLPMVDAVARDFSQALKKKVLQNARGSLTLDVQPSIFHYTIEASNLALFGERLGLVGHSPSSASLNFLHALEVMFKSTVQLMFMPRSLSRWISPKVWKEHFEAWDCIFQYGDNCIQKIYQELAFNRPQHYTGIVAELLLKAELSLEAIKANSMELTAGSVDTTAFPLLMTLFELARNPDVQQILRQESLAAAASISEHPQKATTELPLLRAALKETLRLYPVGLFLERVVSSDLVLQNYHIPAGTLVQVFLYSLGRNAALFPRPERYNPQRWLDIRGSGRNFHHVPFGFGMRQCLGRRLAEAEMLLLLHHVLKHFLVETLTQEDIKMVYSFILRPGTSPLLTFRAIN
# protocolSummary: G-402 cellular enzyme assay, human CYP11B2 (aldosterone release, HTRF)
# measurementContext: G-402 cells expressing human CYP11B2; 1 μM Deoxycorticosterone
pEC50: −log10 of the molar value.
Binary classification by pEC50, with 8 as an inclusive lower bound for fulfilled; all other cases are not fulfilled.

molecule	groupLabel
N#Cc1ccc(Oc2cn[nH]c2-c2ccccc2OCc2ccccc2)cc1 [Example 41]	fulfilled

pEC50 >= 8 for CS(=O)(=O)c1ccc(-c2[nH]ncc2Oc2ccc(Cl)cc2)c(Cl)c1 [Example 42] ?
not fulfilled

Form field: pEC50 at least 8? Entry: N#Cc1ccc(Oc2cn[nH]c2-c2cccc(F)c2Cl)cc1 [Example 35]
fulfilled

Check the entry Fc1ccc(-c2[nH]ncc2Oc2ccc(Cl)cc2)c(F)c1 [Example 15] : does pEC50 equal or exceed 8?
not fulfilled

Does the molecule N#Cc1ccc(Oc2cn[nH]c2-c2ccccc2OCc2ccccn2)cc1 [Example 79] have recorded pEC50 that is 8 or more?
fulfilled

Given the entry N#Cc1ccc(Oc2cn[nH]c2C2CCCN(C(=O)c3ccccn3)C2)cc1 (racemic) [Example 65] , answer whether its pEC50 meets or surpasses 8.
not fulfilled

Quick check: does CSc1ccc(-c2[nH]ncc2Oc2ccc(Cl)cc2)c(Cl)c1 [Example 17] have pEC50 greater than or equal to 8?
not fulfilled

---

# measuredTarget: human CYP11B2 (Homo sapiens (Human), UniProt P19099)
# protocolSummary: G-402 cellular enzyme assay, human CYP11B2 (aldosterone release, HTRF)
# measurementContext: G-402 cells expressing human CYP11B2; 1 μM Deoxycorticosterone
Each record here notes measured pEC50.
pEC50 here is simply -log10 of the concentration when that concentration is written in mol/L.

Completed entries (count: 5):
molecule	pEC50
CCOC(=O)c1ccccc1-c1[nH]ncc1Oc1ccc(C#N)cc1 [Example 39]	7.47
COc1ccc(-c2[nH]ncc2Oc2ccc(Cl)cc2)c(OC)c1 [Example 5]	8.60
N#Cc1ccc(Oc2cn[nH]c2-c2cccc(OCc3ccnc(Cl)c3)c2F)cc1 [Example 86]	8.37
Fc1cccc(Oc2cn[nH]c2-c2ccc(Cl)cc2Cl)n1 [Example 21]	7.00
Cn1nncc1COc1ccccc1-c1[nH]ncc1Oc1ccc(C#N)cc1 [Example 81]	8.60

Name the reported pEC50 value associated with the molecule COc1ccc(Cl)cc1-c1[nH]ncc1Oc1ccc(Cl)cc1 [Example 10]
7.22

# lookup: pEC50 of Cn1cc(-c2[nH]ncc2Oc2ccc(C#N)cc2)cn1 [Example 67]
6.60

Please give the measured pEC50 for this molecule: N#Cc1ccc(Oc2cn[nH]c2-c2ccccc2O)cc1 [Example 78]
9.52

Which value of pEC50 has been reported for CC(=O)N1CCN(C(=O)c2cccc(-c3[nH]ncc3Oc3ccc(C#N)cc3)c2)CC1 [Example 44] in the records?
6.50

---

# measuredTarget: human CYP11B1 (Homo sapiens (Human))
# protocolSummary: G-402 cellular enzyme assay, human CYP11B1 (cortisol release, HTRF)
# measurementContext: G-402 cells expressing human CYP11B1; 1 μM Deoxycortisol
measuredParameter: log10 EC50 (log10 of the value in nM)
Recall that a logarithmic scale is used here: each number is log10 of EC50 in nM.

# count of solved cases: 4
molecule	log10 EC50
COC(=O)c1cccc(-c2[nH]ncc2Oc2ccc(C#N)cc2)c1 [Example 33]	1.50
CS(=O)(=O)c1ccc(-c2[nH]ncc2Oc2ccc(C#N)cc2)cc1 [Example 18]	2.66
Cn1nncc1COc1ccccc1-c1[nH]ncc1Oc1ccc(C#N)cc1 [Example 81]	2.23
Fc1cccc(-c2[nH]ncc2Oc2ccc(Cl)cc2)c1F [Example 1]	3.01

We next turn to a different molecule, shown below.
Suppose we examine the molecule N#Cc1ccc(Oc2cn[nH]c2-c2ccccc2OCc2ccncc2)cc1 [Example 76] ; what log10 EC50 value has been reported?
0.83

---

// reported pEC50 per item
# measuredTarget: human CYP11B1 (Homo sapiens (Human), UniProt P15538)
# Sequence (P15538 25-503): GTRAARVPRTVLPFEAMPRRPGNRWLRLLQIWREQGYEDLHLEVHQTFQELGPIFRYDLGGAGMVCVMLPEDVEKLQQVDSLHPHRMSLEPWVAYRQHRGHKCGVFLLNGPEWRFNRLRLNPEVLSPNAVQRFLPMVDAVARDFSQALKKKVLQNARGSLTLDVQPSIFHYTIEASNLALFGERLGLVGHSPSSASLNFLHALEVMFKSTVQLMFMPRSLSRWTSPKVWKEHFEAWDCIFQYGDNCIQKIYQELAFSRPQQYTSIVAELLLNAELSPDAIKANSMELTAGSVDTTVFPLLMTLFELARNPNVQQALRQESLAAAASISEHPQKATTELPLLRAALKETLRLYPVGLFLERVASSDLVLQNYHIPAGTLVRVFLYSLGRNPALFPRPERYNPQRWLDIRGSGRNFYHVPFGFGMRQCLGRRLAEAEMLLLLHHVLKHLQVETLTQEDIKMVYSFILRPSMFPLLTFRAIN
# protocolSummary: G-402 cellular enzyme assay, human CYP11B1 (cortisol release, HTRF)
# measurementContext: G-402 cells expressing human CYP11B1; 1 μM Deoxycortisol
Reminder that pEC50 is minus the log10 of a molar concentration.

Please review the following examples before continuing.
compound	pEC50
N#Cc1ccc(Oc2cn[nH]c2-c2cccc(F)c2Cl)cc1 [Example 35]	7.16
FC(F)(F)Oc1ccccc1-c1[nH]ncc1Oc1ccc(Cl)cc1 [Example 7]	6.06
CSc1ccc(-c2[nH]ncc2Oc2ccc(Cl)cc2)c(Cl)c1 [Example 17]	6.28
CS(=O)(=O)c1ccc(-c2[nH]ncc2Oc2ccc(C#N)cc2)c(Cl)c1 [Example 43]	6.25
N#Cc1ccc(Oc2cn[nH]c2-c2cccc(CO)c2)cc1 [Example 49]	7.07
N#Cc1ccc(Oc2cn[nH]c2-c2cccc(O)c2)cc1 [Example 48]	7.08
Clc1ccc(Oc2cn[nH]c2-c2ccccc2Cl)cc1 [Example 6]	7.29
CS(=O)(=O)c1ccc(-c2[nH]ncc2Oc2ccc(Cl)cc2)c(Cl)c1 [Example 42]	6.46

Turning now to a further record.
Query the reported pEC50 for human CYP11B1 (Homo sapiens (Human), UniProt P15538); item: N#Cc1ccc(Oc2cn[nH]c2-c2cccc(O)c2F)cc1 [Example 84]
7.76

---

# measuredTarget: human CYP11B2 (Homo sapiens (Human), UniProt P19099)
# protocolSummary: G-402 cellular enzyme assay, human CYP11B2 (aldosterone release, HTRF)
# measurementContext: G-402 cells expressing human CYP11B2; 1 μM Deoxycorticosterone
Listed molecules paired with reported EC50
State just the number; it will be interpreted in nM.

Worked cases, answers included:
recordSmiles	measuredTarget	unitString	EC50
N#Cc1ccc(Oc2cn[nH]c2-c2cccc(O)c2)cc1	human CYP11B2 (Homo sapiens (Human), UniProt P19099)	nM	20.4
N#Cc1ccc(Oc2cn[nH]c2-c2cccc(C[n+]3cccc([O-])c3)c2)cc1	human CYP11B2 (Homo sapiens (Human), UniProt P19099)	nM	656
Clc1ccc(Oc2cn[nH]c2-c2ccc(Cl)cc2)cc1	human CYP11B2 (Homo sapiens (Human), UniProt P19099)	nM	323
FC(F)(F)c1ccc(-c2[nH]ncc2Oc2ccc(Cl)cc2)cc1	human CYP11B2 (Homo sapiens (Human), UniProt P19099)	nM	2030
Cc1ccc(Oc2cn[nH]c2-c2ccccc2Cl)cn1	human CYP11B2 (Homo sapiens (Human), UniProt P19099)	nM	311
Cn1nncc1COc1cccc(-c2[nH]ncc2Oc2ccc(C#N)cc2)c1	human CYP11B2 (Homo sapiens (Human), UniProt P19099)	nM	23.8
N#Cc1ccc(Oc2cn[nH]c2-c2cccc(CN3CC(F)(CO)C3)c2)cc1	human CYP11B2 (Homo sapiens (Human), UniProt P19099)	nM	19.7
CCCCOc1cccc(-c2[nH]ncc2Oc2ccc(C#N)cc2)c1	human CYP11B2 (Homo sapiens (Human), UniProt P19099)	nM	10.9

Would you kindly look at the next entry?
Which EC50 value belongs to N#Cc1ccc(Oc2cn[nH]c2-c2ccnc(Cl)c2)cc1 ?
317

---

# measuredTarget: human CYP11B1 (Homo sapiens (Human))
# protocolSummary: G-402 cellular enzyme assay, human CYP11B1 (cortisol release, HTRF)
# measurementContext: G-402 cells expressing human CYP11B1; 1 μM Deoxycortisol
// classify: if (EC50 < 400 nM) fulfilled else not fulfilled

compound	groupLabel
Fc1cc(Cl)ccc1-c1[nH]ncc1Oc1ccc(Cl)cc1	not fulfilled
Fc1cccc(-c2[nH]ncc2Oc2ccc(Cl)cc2)c1Cl	fulfilled
N#Cc1ccc(Oc2cn[nH]c2-c2ccccc2OCc2ccccc2)cc1	fulfilled
N#Cc1ccc(Oc2cn[nH]c2-c2cccc(C(=O)N3CCOCC3)c2)cc1	not fulfilled
N#Cc1ccc(Oc2cn[nH]c2-c2cccc(CN3CCOCC3)c2)cc1	fulfilled

Strictly below 400 nM: is that where EC50 of N#Cc1ccc(Oc2cn[nH]c2-c2cccc(Cn3ccc(=O)cc3)c2)cc1 sits?
not fulfilled

Problem: For the compound Cn1cc(C(=O)N2CCCC(c3[nH]ncc3Oc3ccc(C#N)cc3)C2)cn1 (racemic) , is EC50 under 400 nM?
not fulfilled

Please check: EC50 for COc1ccc(-c2[nH]ncc2Oc2ccc(Cl)cc2)c(OC)c1 , strictly under 400 nM or not?
fulfilled

State whether 400 nM exceeds EC50 recorded for CC(=O)N1CCC(Oc2cccc(-c3[nH]ncc3Oc3ccc(C#N)cc3)c2)C1 (racemic) .
not fulfilled

---

# measuredTarget: human CYP11B1 (Homo sapiens (Human), UniProt P15538)
# protocolSummary: G-402 cellular enzyme assay, human CYP11B1 (cortisol release, HTRF)
# measurementContext: G-402 cells expressing human CYP11B1; 1 μM Deoxycortisol
pEC50: −log10 of the molar value.
The label depends only on pEC50: TRUE if it is at least 7, FALSE if it is smaller.

recordSmiles	groupLabel
Cn1cc(C(=O)N2CCN(Cc3[nH]ncc3Oc3ccc(C#N)cc3)CC2)cn1	FALSE

Item N#Cc1ccc(Oc2cn[nH]c2-c2cnn(Cc3ccccc3)c2)cc1 with pEC50 of 7 or above?
FALSE

Form field: pEC50 at least 7? Entry: N#Cc1ccc(Oc2cn[nH]c2-c2cccc(OCc3ccnc(Cl)c3)c2F)cc1
TRUE

Hi, just wondering whether COc1ccccc1CCc1[nH]ncc1Oc1ccc(C#N)cc1 shows pEC50 of 7 or higher.
FALSE

Could you verify whether the entry Cc1cc(COc2cccc(-c3[nH]ncc3Oc3ccc(C#N)cc3)c2)on1 shows pEC50 of no less than 7?
TRUE

Is pEC50 at least 7? Consider CCOC(=O)c1ccccc1-c1[nH]ncc1Oc1ccc(C#N)cc1
FALSE

The values you see were collected from patent US9790217B2.
